Study system: UBE2V1; also: test concentration or dose not given here
Experimental protocol: reporter assay of Huesken 2005
Experimental setup: siRNA
Oligonucleotides are written 5' to 3', each unit as a sugar letter and its base; * is a phosphorothioate linkage, no mark a phosphodiester; rarer units and linkages stand in square brackets, end groups in braces. Plain capitals give the bases only. d = 2'-deoxy (DNA); r = 2'-OH (RNA)
Property name: normalised inhibition (eCFP-eYFP dual reporter) (%)

# Substance, Study system, Observed result
records = [
    ("sense rArArUrUrCrArUrArUrArGrCrArUrCrArArArGdTdT / antisense rCrUrUrUrGrArUrGrCrUrArUrArUrGrArArUrUdCdT", "UBE2V1", 70),
    ("sense rCrArArArGrUrUrGrUrCrCrUrGrCrArArGrArGdTdT / antisense rCrUrCrUrUrGrCrArGrGrArCrArArCrUrUrUrGdAdT", "UBE2V1", 71.5),
    ("sense rCrArGrArArUrUrCrArUrArUrArGrCrArUrCrAdTdT / antisense rUrGrArUrGrCrUrArUrArUrGrArArUrUrCrUrGdCdC", "UBE2V1", 90),
    ("sense rGrGrArGrUrArArArArGrUrCrCrCrUrCrGrCrAdTdT / antisense rUrGrCrGrArGrGrGrArCrUrUrUrUrArCrUrCrCdTdT", "UBE2V1", 88.7),
    ("sense rCrArGrUrGrCrUrArGrCrArArArArUrGrGrCrAdTdT / antisense rUrGrCrCrArUrUrUrUrGrCrUrArGrCrArCrUrGdAdT", "UBE2V1", 87.5),
]
